# experimental.target: T1, HLA-A*0201 (human)
# T1 construct: MHC monomer first loaded with a UV-sensitive peptide that is cleaved and exchanged for the test peptide; captured on streptavidin; also called peptide-receptive MHC molecules
# protocol.text: UV-ligand exchange, streptavidin/anti-b2m sandwich ELISA
value.kind: Average exchange yield in % (%)

Would you please look over these solved cases?
SLVAVELEKV (synthetic peptide from COG4) [COG4-001]	57
KLVEFDFLGA (synthetic peptide from TACC3) [TACC3-001]	54

(P) SILTIEDGIFEV (synthetic peptide from HSPA2, HSPA8) [HSP-002]
(Q) AVVEFLTSV (synthetic peptide from DROSHA) [DROSHA-001]
Req: Which entry has a larger number for Average exchange yield in %, P or Q ? Field: selected label. Fill in the label of the entry you choose.
Resp: Q
(Q: 68%, P: 47%)
